Taken from patent US11207312B2.

Molecular target: IMP-1 (Serratia marcescens)
Sequence (P52699 whole entry, looked up, species assumed): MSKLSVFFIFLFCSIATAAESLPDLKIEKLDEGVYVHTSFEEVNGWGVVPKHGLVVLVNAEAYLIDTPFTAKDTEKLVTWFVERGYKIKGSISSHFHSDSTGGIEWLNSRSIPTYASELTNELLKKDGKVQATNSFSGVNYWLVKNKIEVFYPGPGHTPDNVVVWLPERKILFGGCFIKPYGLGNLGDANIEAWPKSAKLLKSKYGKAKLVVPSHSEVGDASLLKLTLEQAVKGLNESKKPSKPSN
Criterion: IC50 strictly less than 700 pM. Met: yes. Not met: no.

compound	study-system	qualitative-label
NC[C@@H](O)CNS(=O)(=O)c1ccc(N2CCC(c3ncc[nH]3)CC2)c(-c2nn[nH]n2)c1S(N)(=O)=O	IMP-1 (Serratia marcescens)	no
C[C@H](CN)NS(=O)(=O)c1ccc(N2CCC(CCN)CC2)c(-c2nn[nH]n2)c1S(N)(=O)=O	IMP-1 (Serratia marcescens)	yes
C[C@H](CN)NS(=O)(=O)c1ccc(N2CC[C@@H](N)[C@@H](F)C2)c(-c2nn[nH]n2)c1S(N)(=O)=O (racemic)	IMP-1 (Serratia marcescens)	no
C[C@H](CN)NS(=O)(=O)c1ccc(N2CC[C@@H](CN)[C@@H](F)C2)c(-c2nn[nH]n2)c1S(N)(=O)=O (racemic)	IMP-1 (Serratia marcescens)	no
